# Assay protocol: A549 cell viability effects, profiling panel, calcein-AM fluorescence, 48 h, basal (AID 1162); note: test concentration not given here
# Setup conditions: higher = more signal
// label = t if z-score is not less than 0.3, otherwise f

- Compound: "C/C=C/[C@@H](CCn1cc(CCO[Si](C(C)C)(C(C)C)C(C)C)nn1)[Si](C)(C)c1ccc(OC)cc1"
  Cat: "t"
- Compound: "COc1ccc([Si](C)(C)[C@H]2[C@H](CC(=O)N3Cc4ccccc4C[C@H]3CO)O[C@@]3(C(=O)N(Cc4cccc(N5C(=O)COc6ccccc65)c4)c4ccccc43)[C@@H]2C)cc1"
  Cat: "t"
- Compound: "COCCCNC(=O)[C@@]1(C)c2ccccc2C(=O)N(Cc2cc(F)cc(C(F)(F)F)c2)[C@H]1c1ccc(CO)cc1"
  Cat: "f"
- Compound: "O=C1N(CCS(=O)(=O)c2ccccc2)Cc2ccccc2[C@@H]2OC(c3ccc(OCCCO)cc3)=N[C@]12Cc1ccccc1"
  Cat: "f"
- Compound: "CCOC(=O)C[C@H]1[C@H](OC(=O)c2ccc(-c3ccccc3)cc2)[C@@H](NC(=O)c2ccccc2)c2cc(OCCCO)ccc2N1C(=O)c1ccccc1"
  Cat: "t"
- Compound: "COc1ccc(C#Cc2ccc3c(c2)[C@]2(C(=O)N3)[C@H](c3ccc(O)cc3)N3[C@H](c4ccccc4)[C@H](c4ccccc4)OC(=O)[C@H]3[C@@H]2C(N)=O)cc1"
  Cat: "f"
- Compound: "CCN(CC)c1ccc(N2CC=CC34O[C@@H]5C=CCOC(=O)[C@@H]5[C@H]3C(=O)N(C(CO)C(C)C)[C@@H]4C2=O)cc1 (some centres undefined)"
  Cat: "f"
- Compound: "CCOC(=O)C[C@H]1[C@H](OC(=O)c2ccc(-c3ccccc3)cc2)[C@@H](NC(=O)C2CCCCC2)c2cc(OCCCO)ccc2N1C(=O)c1ccc2ccccc2n1"
  Cat: "t"
- Compound: "C[N+](C)(C)CCCC[C@@H]1NC(=O)[C@H]2C[C@@H](C(=O)NCCCCCN)[C@@H](c3cccc(OCCO)c3)N2C1=O"
  Cat: "f"
- Compound: "O=c1n(-c2ccccc2)c(=O)n2n1CC(COc1ccccc1)=C1[C@@H](CCc3ccccc3)OB(O)C[C@@H]12"
  Cat: "t"
- Compound: "CCCCCN1CC=CC23O[C@@H]4/C=C\\CCC(C)OC(=O)C4[C@H]2C(=O)N(CCCO)[C@@H]3C1=O (some centres undefined)"
  Cat: "f"
- Compound: "CC(C)(C)OC(=O)CC[C@@]1(C(=O)N2CCOCC2)N=C(c2ccc(OCCCO)cc2)O[C@@H]1c1ccccc1"
  Cat: "t"
- Compound: "CC(C)C[C@@H]1NC(=O)[C@@]23C(=O)N[C@@H](Cc4ccccc4)C2[C@H](C)[C@@]2(C)O[C@H]2C3/C=C/CC/C=C/CNC(=O)[C@@H](C)NC1=O (some centres undefined)"
  Cat: "t"
- Compound: "O=C(N1CCCCC1)[C@@]1(Cc2ccccc2)N=C(c2ccc(OCCCO)cc2)O[C@H]1c1ccccc1"
  Cat: "f"
